Target: T1, SARS-CoV-2 ORF7a (SARS-CoV-2 (Wuhan variant), UniProt P0DTC7 16-96)
T1 construct: also called open reading frame 7a; accessory protein ORF7a; not shown: twin strep tag, N-terminal, kept
T1 sequence: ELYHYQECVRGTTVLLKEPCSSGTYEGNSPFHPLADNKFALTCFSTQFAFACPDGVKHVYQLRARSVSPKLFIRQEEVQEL
Assay: SPR
Details: both partners purified
readout-name: Kd (nM)
Please respond with the number in nM and leave the unit unwritten.

Entry LLGDFFRKSKEKIGKEFKRIVQRIKDFLRNLVPRTES (also called synthetic LL-37; human antimicrobial peptide LL-37; source: synthetic peptide, bought: Invivogen) [LL-37] ; Kd = 138

FYI, the data here is from paper PMC12500691.
